Values were extracted from patent US20060275758A1.

# system: GSK-3β
# assay protocol: In vitro phosphorylation assay of GST-2E11 (KCNQ2-15b fusion protein) with recombinant GSK-3β kinase and PKA
# run parameters: LiCl added to the kination mix (0, 8.3, 25, 75, 225 mM); autoradiography band at about 45 kD; read-out: LiCl concentration at which the phosphorylation state of GST-2E11 was reduced by 50%
measured attribute: IC50

Supply recorded IC50 for [Cl-].[Li+] here.
~50 mM
